Attribute: (A) − (B)
Target entity: NGalNAc-T2 (Homo sapiens, UniProt Q6L9W6, K411R)
Run description: Requirements of divalent cations in the activity
Assay type: biochemical
Experimental context: divalent cation etc. added; MES (pH 6.5); blank 263.21 subtracted
Reported endpoint: (A) − (B) (dpm)

Smiles record: [Cl][Mn][Cl]
Reported endpoint: (A) − (B)
Recorded number: 1221.22
//
Smiles record: [Cl][Cu][Cl]
Reported endpoint: (A) − (B)
Recorded number: −44.86
//
Smiles record: [Cl-].[Cl-].[Mg+2]
Reported endpoint: (A) − (B)
Recorded number: 2860.95
//
Smiles record: O=C(O)CN(CCN(CC(=O)O)CC(=O)O)CC(=O)O
Reported endpoint: (A) − (B)
Recorded number: −27.93
//
Smiles record: [Ca+2].[Cl-].[Cl-]
Reported endpoint: (A) − (B)
Recorded number: −45.38
//
Smiles record: [Cl-].[Cl-].[Zn+2]
Reported endpoint: (A) − (B)
Recorded number: −75.62
//
Smiles record: O=S(=O)([O-])[O-].[Cd+2]
Reported endpoint: (A) − (B)
Recorded number: −45.29
